Test system: CHEAL
ASSAY DETAILS: Pre-emergence herbicidal activity on CHEAL (common lambsquarters)
Format: in vivo, Chenopodium album
EXPERIMENTAL SETUP: lowest tested rate giving 80% or greater inhibition, approx. 14 days after planting and treating, greenhouse
Classification field: MET = Pre-emergence activity (GR80) on CHEAL at or over 60 g/ha; NOT MET = Pre-emergence activity (GR80) on CHEAL under 60 g/ha.

- MOLECULE: "C[C@H](CNC(=O)c1cccc(C(F)(F)F)c1)NC(=O)c1cccc(C(F)(F)F)c1F"
  ASSIGNED CATEGORY: "MET"
- MOLECULE: "CC(CNC(=O)c1cccc(F)c1)NC(=O)c1cccc(C(F)(F)F)c1F (stereo not drawn)"
  ASSIGNED CATEGORY: "MET"
- MOLECULE: "CC(CNC(=O)c1cccc(Cl)c1F)NC(=O)c1cccc(Cl)c1F (stereo not drawn)"
  ASSIGNED CATEGORY: "MET"
- MOLECULE: "Cc1c(Cl)cccc1C(=O)NCC(C)NC(=O)c1cccc(Cl)c1C (stereo not drawn)"
  ASSIGNED CATEGORY: "MET"
- MOLECULE: "COc1c(C(=O)NC(C)CNC(=O)c2cccc(C(F)(F)F)c2)cccc1C(F)(F)F (stereo not drawn)"
  ASSIGNED CATEGORY: "MET"
- MOLECULE: "Cc1ccccc1C(=O)NC(C)CNC(=O)c1cccc(C(F)(F)F)c1 (stereo not drawn)"
  ASSIGNED CATEGORY: "MET"
- MOLECULE: "Cc1ccc(Cl)cc1C(=O)NC(C)CNC(=O)c1cccc(C(F)(F)F)c1 (stereo not drawn)"
  ASSIGNED CATEGORY: "MET"
- MOLECULE: "Cc1c(Br)cccc1C(=O)NC(C)CNC(=O)c1cccc(C(F)(F)F)c1 (stereo not drawn)"
  ASSIGNED CATEGORY: "NOT MET"
- MOLECULE: "Cc1c(Cl)cccc1C(=O)NC(C)CNC(=O)c1cccc(C(F)(F)F)c1F (stereo not drawn)"
  ASSIGNED CATEGORY: "NOT MET"

====

System: POROL
ASSAY DETAILS: Post-emergence herbicidal activity on POROL (common purslane; table head prints PORAL)
Format: in vivo, Portulaca oleracea
EXPERIMENTAL SETUP: post-emergence spray; lowest tested rate with 80% or greater inhibition; about 14 days after treatment

- MOLECULE: "CC(CNC(=O)c1cccc(C(F)(F)F)c1)NC(=O)c1cccc(I)c1 (stereo not shown) [Example 59]"
  Post-emergence activity (GR80) PORAL: "[empty]"
- MOLECULE: "CC(CNC(=O)c1cccc(C(F)(F)F)c1)NC(=O)c1ccccc1SCCCCl (stereo not shown) [Example 119]"
  Post-emergence activity (GR80) PORAL: "phyto"
- MOLECULE: "C=C(C)CSc1ccccc1C(=O)NC(C)CNC(=O)c1cccc(C(F)(F)F)c1 (stereo not shown) [Example 124]"
  Post-emergence activity (GR80) PORAL: "phyto"
- MOLECULE: "C[C@H](CNC(=O)c1cccc(C(F)(F)F)c1)NC(=O)Oc1ccc(F)cc1 [Example 230]"
  Post-emergence activity (GR80) PORAL: "phyto"
- MOLECULE: "CC(CNC(=O)c1cccc(C(F)(F)F)c1)NC(=O)c1cccc(F)c1F (stereo not shown) [Example 34]"
  Post-emergence activity (GR80) PORAL: "250 g/ha"
- MOLECULE: "C[C@H](CNC(=O)c1cccc(C(F)(F)F)c1)NC(=O)Oc1ccc(Cl)cc1 [Example 231]"
  Post-emergence activity (GR80) PORAL: "phyto"
- MOLECULE: "O=C(NCC(CCl)NC(=O)c1cccc(C(F)(F)F)c1)c1cccc(C(F)(F)F)c1 (stereo not shown) [Example 12]"
  Post-emergence activity (GR80) PORAL: "1000 g/ha"
- MOLECULE: "O=C(NCC(CO)NC(=O)c1cccc(C(F)(F)F)c1)c1cccc(C(F)(F)F)c1 (stereo not shown) [Example 11]"
  Post-emergence activity (GR80) PORAL: "[empty]"
- MOLECULE: "CC(CNC(=O)c1cccc(C(F)(F)F)c1)NC(=O)c1cccc(C(F)(F)F)c1 (stereo not shown) [Example 5]"
  Post-emergence activity (GR80) PORAL: "750 g/ha"

====

Tested on: CHEAL
ASSAY DETAILS: Pre-emergence herbicidal activity on CHEAL (common lambsquarters)
Type: in vivo, Chenopodium album
EXPERIMENTAL SETUP: lowest tested rate giving 80% or greater inhibition, approx. 14 days after planting and treating, greenhouse
ATTRIBUTE MEASURED: Pre-emergence activity (GR80) on CHEAL

- COMPOUND: "CC(CNC(=O)c1cccc(C(F)(F)F)c1)NC(=O)c1cccc(C(F)(F)F)c1Cl (stereo not drawn) [Example 14]"
  OBSERVED MEASUREMENT: "64 g/ha"
- COMPOUND: "CC(CNC(=O)c1cccc(C(F)(F)F)c1)NC(=O)c1cccc(C(F)(F)F)c1I (stereo not drawn) [Example 15]"
  OBSERVED MEASUREMENT: "125 g/ha"
- COMPOUND: "CC(CNC(=O)c1cccc(C(F)(F)F)c1)NC(=O)c1cccc(Br)c1F (stereo not drawn) [Example 56]"
  OBSERVED MEASUREMENT: "32 g/ha"
- COMPOUND: "Cc1c(C(=O)NC(C)CNC(=O)c2cccc(C(F)(F)F)c2)cccc1C(F)(F)F (stereo not drawn) [Example 16]"
  OBSERVED MEASUREMENT: "1000 g/ha"
- COMPOUND: "COc1c(F)cccc1C(=O)NC(C)CNC(=O)c1cccc(C(F)(F)F)c1 (stereo not drawn) [Example 40]"
  OBSERVED MEASUREMENT: "750 g/ha"
- COMPOUND: "C[C@H](CNC(=O)c1cccc(C(F)(F)F)c1)NC(=O)Oc1ccc(F)cc1 [Example 230]"
  OBSERVED MEASUREMENT: "1000 g/ha"
- COMPOUND: "CC(CNC(=O)c1cccc(C(F)(F)F)c1)NC(=O)c1cccc(Cl)c1F (stereo not drawn) [Example 49]"
  OBSERVED MEASUREMENT: "64 g/ha"
- COMPOUND: "Cc1ccc(C)c(C(=O)NC(C)CNC(=O)c2cccc(C(F)(F)F)c2)c1 (stereo not drawn) [Example 64]"
  OBSERVED MEASUREMENT: "250 g/ha"
- COMPOUND: "CC(CNC(=O)c1cccc(C(F)(F)F)c1)NC(=O)c1cccc(I)c1 (stereo not drawn) [Example 59]"
  OBSERVED MEASUREMENT: "500 g/ha"
- COMPOUND: "CC(CNC(=O)c1cccc(C(F)(F)F)c1)NC(=O)c1cc(C(F)(F)F)ccc1Cl (stereo not drawn) [Example 9]"
  OBSERVED MEASUREMENT: "500 g/ha"
- COMPOUND: "CC(CNC(=O)c1cccc(C(F)(F)F)c1)NC(=O)c1ccccc1Cl (stereo not drawn) [Example 103]"
  OBSERVED MEASUREMENT: "500 g/ha"
- COMPOUND: "C[C@H](CNC(=O)c1cccc(C(F)(F)F)c1)NC(=O)Oc1ccc(Cl)cc1 [Example 231]"
  OBSERVED MEASUREMENT: "phyto"
- COMPOUND: "CC(CNC(=O)c1cccc(C(F)(F)F)c1)NC(=O)c1cccc(Cl)c1 (stereo not drawn) [Example 43]"
  OBSERVED MEASUREMENT: "500 g/ha"
- COMPOUND: "Cc1c(F)cccc1C(=O)NC(C)CNC(=O)c1cccc(C(F)(F)F)c1 (stereo not drawn) [Example 38]"
  OBSERVED MEASUREMENT: "64 g/ha"
- COMPOUND: "CC(CNC(=O)c1cccc(C(F)(F)F)c1)NC(=O)c1cccc(OC(F)(F)F)c1 (stereo not drawn) [Example 72]"
  OBSERVED MEASUREMENT: "500 g/ha"
- COMPOUND: "CC(CNC(=O)c1cccc(C(F)(F)F)c1)NC(=O)c1cccc(F)c1F (stereo not drawn) [Example 34]"
  OBSERVED MEASUREMENT: "125 g/ha"
- COMPOUND: "Cc1cccc(C(=O)NC(C)CNC(=O)c2cccc(C(F)(F)F)c2)c1C (stereo not drawn) [Example 67]"
  OBSERVED MEASUREMENT: "250 g/ha"
- COMPOUND: "CC(CNC(=O)c1cccc(Cl)c1)NC(=O)c1cccc(C(F)(F)F)c1F (stereo not drawn) [Example 145]"
  OBSERVED MEASUREMENT: "125 g/ha"

====

Test system: CONAR
ASSAY DETAILS: Pre-emergence herbicidal activity on CONAR (field bindweed)
Format: in vivo, Convolvulus arvensis
EXPERIMENTAL SETUP: lowest tested rate giving 80% or greater inhibition, approx. 14 days after planting and treating, greenhouse
Excerpt: All such uses, and the biological activity enabling such uses, are embraced by the term “herbicidal” herein. Tables 15 and 16 summarize results of tests conducted as described below to determine the pre-emergence herbicidal activity, in the form of a GR80 value, of illustrative compounds of this invention. […] Approximately 14 days after planting and treating, the plants were observed and herbicidal efficacy recorded as percent inhibition by comparison with untreated plants. […]
// Pre-emergence activity (GR80) on CONAR lookup, one value per entry

- COMPOUND: "CCSc1ncccc1C(=O)NC(C)CNC(=O)c1cccc(C(F)(F)F)c1 (centres unmarked)"
  UNIT LABEL: "g/ha"
  Pre-emergence activity (GR80) on CONAR: 250
- COMPOUND: "CC(CNC(=O)c1cccc(C(F)(F)F)c1)NC(=O)c1cccc(Cl)c1Cl (centres unmarked)"
  UNIT LABEL: "g/ha"
  Pre-emergence activity (GR80) on CONAR: 250
- COMPOUND: "CC(CNC(=O)c1cccc(C(F)(F)F)c1)NC(=O)c1cccc(Cl)c1F (centres unmarked)"
  UNIT LABEL: "g/ha"
  Pre-emergence activity (GR80) on CONAR: 750
- COMPOUND: "CC(CNC(=O)c1cccc(C(F)(F)F)c1)NC(=O)c1cccc(F)c1Cl (centres unmarked)"
  UNIT LABEL: "g/ha"
  Pre-emergence activity (GR80) on CONAR: 250
- COMPOUND: "Cc1c(Cl)cccc1C(=O)NC(C)CNC(=O)c1cccc(C(F)(F)F)c1 (centres unmarked)"
  UNIT LABEL: "g/ha"
  Pre-emergence activity (GR80) on CONAR: 1000
- COMPOUND: "Cc1cccc(C(=O)NC(C)CNC(=O)c2cccc(C(F)(F)F)c2)c1Cl (centres unmarked)"
  UNIT LABEL: "g/ha"
  Pre-emergence activity (GR80) on CONAR: 250
